- Target: SIRT5 (Homo sapiens, UniProt Q9NXA8)
- Sequence (Q9NXA8 37-310): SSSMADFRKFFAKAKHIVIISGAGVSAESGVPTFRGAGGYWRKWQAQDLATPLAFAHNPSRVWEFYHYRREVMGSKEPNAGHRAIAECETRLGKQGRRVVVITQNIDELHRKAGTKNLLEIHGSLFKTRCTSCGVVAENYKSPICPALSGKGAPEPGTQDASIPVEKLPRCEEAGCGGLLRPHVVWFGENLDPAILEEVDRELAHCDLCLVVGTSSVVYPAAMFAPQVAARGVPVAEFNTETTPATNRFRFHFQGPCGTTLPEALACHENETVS
- Assay Info: Fluor de Lys SIRT5 assay
- Details: read-out: % inhibition at 10 μM SIRT5
Where a SMILES comes first, the peptide text is derived from it. Side-chain parts run from the residue outwards. The star is where a group is joined. Cbz = O=C(OCc1ccccc1)*; Bz = O=C(c1ccccc1)*
Each item that follows carries a reported inhibition at 10 µM.
Write down the numeric answer in % and omit the unit.

Molecule | inhibition at 10 µM [%]
Cc1cc(C)nc(SCC(=O)Nc2ncc(Cc3cccc4ccccc34)s2)n1 [Compound 5, SirReal2, reference compound] | 3
C[C@H](NC(=O)[C@H](CCCCNC(=O)CNC(=O)c1ccccc1)NC(=O)OCc1ccccc1)C(N)=O [Compound 28] (Cbz-Lys([Gly-Bz])-Ala-NH2) | 0
C[C@H](NC(=O)[C@H](CCCCNC(=S)CNC(=O)c1ccccc1Nc1cccc(OCCc2ccccc2)c1)NC(=O)OCc1ccccc1)C(N)=O | 4

Look up and state reported inhibition at 10 µM for C[C@H](NC(=O)[C@H](CCCCNC(=O)CNC(=O)c1ccccc1Nc1ccccc1)NC(=O)OCc1ccccc1)C(N)=O
0

Look up and state reported inhibition at 10 µM for C[C@H](NC(=O)[C@H](CCCCNC(=O)CNC(=O)c1ccccc1Nc1cccc(OCCc2ccccc2)c1)NC(=O)OCc1ccccc1)C(N)=O
0

Look up and state reported inhibition at 10 µM for NC(=O)C1CCCc2c1[nH]c1ccc(Cl)cc21 (stereo not shown) [Compound 9, EX-527, reference compound]
0

Look up and state reported inhibition at 10 µM for CC(=S)NCCCC[C@H](NC(=O)OCc1ccccc1)C(=O)N[C@@H](C)C(N)=O [UKU 10363, reference compound]
3

Look up and state reported inhibition at 10 µM for NC(=O)c1ccccc1Nc1cccc(OCCc2ccccc2)c1 [Compound 6, 3′-phenethyloxy-2-anilinobenzamide, reference compound]
10

Look up and state reported inhibition at 10 µM for CCCNC(=O)CNC(=O)c1ccccc1Nc1cccc(OCCc2ccccc2)c1
0

Look up and state reported inhibition at 10 µM for N#C/C(=C\c1ccc(-c2cc(Cl)ccc2Cl)o1)C(=O)Nc1cccc2ncccc12 [Compound 7, AGK2, reference compound]
0

* * *

- Target: SIRT2 (Homo sapiens, UniProt Q8IXJ6)
- Sequence (Q8IXJ6 whole entry): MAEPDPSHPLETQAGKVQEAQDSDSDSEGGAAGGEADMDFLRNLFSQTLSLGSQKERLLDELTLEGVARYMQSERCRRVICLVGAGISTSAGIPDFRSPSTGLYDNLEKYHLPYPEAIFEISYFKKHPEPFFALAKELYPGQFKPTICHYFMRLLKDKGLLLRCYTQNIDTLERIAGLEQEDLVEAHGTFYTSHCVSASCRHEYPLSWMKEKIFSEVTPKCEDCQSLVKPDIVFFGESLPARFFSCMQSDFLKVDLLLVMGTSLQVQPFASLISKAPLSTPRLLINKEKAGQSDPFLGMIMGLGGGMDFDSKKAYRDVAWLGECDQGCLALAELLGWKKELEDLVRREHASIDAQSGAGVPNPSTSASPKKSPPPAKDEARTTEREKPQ
- Assay Info: Fluor de Lys SIRT2 assay
- Details: read-out: % inhibition at 1 μM SIRT2
Each item that follows carries a reported inhibition at 1 µM.
Your answer should be a number followed by the unit of measure.

Guide cases for inhibition at 1 µM, answers given:
Molecule | Target | inhibition at 1 µM
C[C@H](NC(=O)[C@H](CCCCNC(=S)CNC(=O)c1ccccc1Nc1cccc(OCCc2ccccc2)c1)NC(=O)OCc1ccccc1)C(N)=O [Compound 36] | SIRT2 (Homo sapiens, UniProt Q8IXJ6) | 100%
Cc1cc(C)nc(SCC(=O)Nc2ncc(Cc3cccc4ccccc34)s2)n1 [Compound 5, SirReal2, reference compound] | SIRT2 (Homo sapiens, UniProt Q8IXJ6) | 80%

We next turn to a different molecule, shown below.
Look up and state reported inhibition at 1 µM for NC(=O)c1ccccc1Nc1cccc(OCCc2ccccc2)c1 [Compound 6, 3′-phenethyloxy-2-anilinobenzamide, reference compound]
32%

* * *

- Target: SIRT3 (Homo sapiens)
- Sequence (Q9NTG7 1-399): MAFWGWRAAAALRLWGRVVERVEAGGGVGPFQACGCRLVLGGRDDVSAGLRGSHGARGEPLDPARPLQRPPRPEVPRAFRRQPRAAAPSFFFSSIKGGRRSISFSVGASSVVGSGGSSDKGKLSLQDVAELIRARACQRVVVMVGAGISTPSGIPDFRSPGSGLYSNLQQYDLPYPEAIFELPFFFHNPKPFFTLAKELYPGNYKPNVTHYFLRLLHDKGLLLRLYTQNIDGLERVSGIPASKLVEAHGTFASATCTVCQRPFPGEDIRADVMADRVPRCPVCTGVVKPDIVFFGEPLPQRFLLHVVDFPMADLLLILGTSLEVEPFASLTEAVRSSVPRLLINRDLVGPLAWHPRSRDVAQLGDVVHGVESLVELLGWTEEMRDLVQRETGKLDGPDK
- Assay Info: Fluor de Lys SIRT3 assay
Each item that follows carries a reported IC50.
Write down the numeric answer in µM and omit the unit.

Compound | Unit Annotation | Numeric Value
C[C@H](NC(=O)[C@H](CCCCNC(=S)CNC(=O)c1ccccc1Nc1cccc(OCCc2ccccc2)c1)NC(=O)OCc1ccccc1)C(N)=O [Compound 36] | µM | 9.49

Look up and state reported IC50 for CC(=S)NCCCC[C@H](NC(=O)OCc1ccccc1)C(=O)N[C@@H](C)C(N)=O [UKU 10363, reference compound]
4.39

* * *

- Target: SIRT1 (Homo sapiens, UniProt Q96EB6)
- Sequence (Q96EB6 whole entry): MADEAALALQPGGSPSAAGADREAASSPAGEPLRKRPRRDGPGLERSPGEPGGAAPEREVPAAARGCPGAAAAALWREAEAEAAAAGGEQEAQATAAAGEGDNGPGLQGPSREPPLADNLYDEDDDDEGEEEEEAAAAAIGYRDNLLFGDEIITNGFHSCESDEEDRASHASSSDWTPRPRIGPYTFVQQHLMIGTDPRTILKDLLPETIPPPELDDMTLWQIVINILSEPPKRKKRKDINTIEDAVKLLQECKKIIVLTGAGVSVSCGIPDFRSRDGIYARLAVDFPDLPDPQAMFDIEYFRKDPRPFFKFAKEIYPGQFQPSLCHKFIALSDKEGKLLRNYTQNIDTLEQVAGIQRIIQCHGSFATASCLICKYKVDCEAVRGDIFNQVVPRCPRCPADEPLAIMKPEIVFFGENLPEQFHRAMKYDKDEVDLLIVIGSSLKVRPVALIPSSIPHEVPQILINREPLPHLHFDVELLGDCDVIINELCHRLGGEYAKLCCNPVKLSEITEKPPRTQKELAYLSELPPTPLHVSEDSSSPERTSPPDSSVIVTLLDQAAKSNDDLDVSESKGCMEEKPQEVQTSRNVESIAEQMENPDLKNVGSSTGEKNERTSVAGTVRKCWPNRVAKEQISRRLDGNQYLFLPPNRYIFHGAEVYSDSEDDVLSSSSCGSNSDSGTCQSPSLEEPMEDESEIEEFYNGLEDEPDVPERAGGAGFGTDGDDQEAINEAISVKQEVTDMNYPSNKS
- Assay Info: Fluor de Lys SIRT1 assay
- Details: read-out: % inhibition at 50 μM SIRT1
Where a SMILES comes first, the peptide text is derived from it. Side-chain parts run from the residue outwards. The star is where a group is joined. Cbz = O=C(OCc1ccccc1)*; Bz = O=C(c1ccccc1)*
I would appreciate it if you labelled entries y when inhibition at 50 µM is 10% or higher, otherwise n.

Solved entries:
Compound | Target | Answer Label
C[C@H](NC(=O)[C@H](CCCCNC(=O)CNC(=O)c1ccccc1)NC(=O)OCc1ccccc1)C(N)=O [Compound 28] (Cbz-Lys([Gly-Bz])-Ala-NH2) | SIRT1 (Homo sapiens, UniProt Q96EB6) | n
C[C@H](NC(=O)[C@H](CCCCNC(=O)CNC(=O)c1ccccc1Nc1ccccc1)NC(=O)OCc1ccccc1)C(N)=O [Compound 27] | SIRT1 (Homo sapiens, UniProt Q96EB6) | y
CN(C)CCCCC(=O)Nc1ccc(NC(=S)NC(=O)c2ccc(C(C)(C)C)cc2)cc1 [Compound 3, tenovin-6, reference compound] | SIRT1 (Homo sapiens, UniProt Q96EB6) | y

Could you tell me if the measured inhibition at 50 µM of C[C@H](NC(=O)[C@H](CCCCNC(=O)CNC(=O)c1ccccc1Nc1cccc(OCCc2ccccc2)c1)NC(=O)OCc1ccccc1)C(N)=O [Compound 26] reaches 10% or more?
y

Could you tell me if the measured inhibition at 50 µM of NC(=O)c1ccccc1Nc1cccc(OCCc2ccccc2)c1 [Compound 6, 3′-phenethyloxy-2-anilinobenzamide, reference compound] reaches 10% or more?
y

* * *

- Target: SIRT1 (Homo sapiens)
- Assay Info: Fluor de Lys SIRT1 assay
- Details: read-out: % inhibition at 50 μM SIRT1
Quantity: inhibition at 50 µM (%)
Write down the numeric answer in % and omit the unit.

Guide cases for inhibition at 50 µM, answers given:
Molecule | Target | inhibition at 50 µM [%]
Cc1cc(C)nc(SCC(=O)Nc2ncc(Cc3cccc4ccccc34)s2)n1 [Compound 5, SirReal2, reference compound] | SIRT1 (Homo sapiens) | 6
CCCNC(=O)CNC(=O)c1ccccc1Nc1cccc(OCCc2ccccc2)c1 | SIRT1 (Homo sapiens) | 12
NC(=O)CNC(=O)c1ccccc1Nc1cccc(OCCc2ccccc2)c1 | SIRT1 (Homo sapiens) | 18

Look up and state reported inhibition at 50 µM for N#C/C(=C\c1ccc(-c2cc(Cl)ccc2Cl)o1)C(=O)Nc1cccc2ncccc12 [Compound 7, AGK2, reference compound]
14

Look up and state reported inhibition at 50 µM for O=C(Nc1cccc([N+](=O)[O-])c1)c1cccc(S(=O)(=O)N2CCCCCC2)c1 [Compound 8, AK-1, reference compound]
25

Look up and state reported inhibition at 50 µM for CCCCCNC(=O)CNC(=O)c1ccccc1Nc1cccc(OCCc2ccccc2)c1
4

Look up and state reported inhibition at 50 µM for CCCNC(=S)CNC(=O)c1ccccc1Nc1cccc(OCCc2ccccc2)c1
10

Look up and state reported inhibition at 50 µM for CCCCCNC(=S)CNC(=O)c1ccccc1Nc1cccc(OCCc2ccccc2)c1
11

* * *

- Target: SIRT5 (Homo sapiens)
- Assay Info: Fluor de Lys SIRT5 assay
- Details: read-out: % inhibition at 50 μM SIRT5
Each item that follows carries a reported inhibition at 50 µM.
Write down the numeric answer in % and omit the unit.

Guide cases for inhibition at 50 µM, answers given:
Molecule | inhibition at 50 µM (%)
CC(=S)NCCCC[C@H](NC(=O)OCc1ccccc1)C(=O)N[C@@H](C)C(N)=O [UKU 10363, reference compound] | 6
Cc1cc(C)nc(SCC(=O)Nc2ncc(Cc3cccc4ccccc34)s2)n1 [Compound 5, SirReal2, reference compound] | 1

We next turn to a different molecule, shown below.
Look up and state reported inhibition at 50 µM for O=C(Nc1cccc([N+](=O)[O-])c1)c1cccc(S(=O)(=O)N2CCCCCC2)c1 [Compound 8, AK-1, reference compound]
0
